# tested-target: T1, human MSLN-R3 protein (Met487-Ser606 of NCBI AAH09272.1) expressed on HEK293T-hMSLN-R3 cells (human, UniProt Q13421 487-606)
# T1 construct: also called Region3
# T1 sequence (Q13421 495-614): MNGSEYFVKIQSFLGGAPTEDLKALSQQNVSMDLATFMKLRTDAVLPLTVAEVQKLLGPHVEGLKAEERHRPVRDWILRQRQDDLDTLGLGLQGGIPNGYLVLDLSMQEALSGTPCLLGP
# protocol-notes: FACS on HEK293T-hMSLN-R3 cells
Listed here are binders together with their documented Maximum mean fluorescence intensity.
Write the number on its own, no unit after it.

Answered cases to consult:
>  <binder>
S009-F1.56.1 (antibody, human IgG1, kappa, V domains shown, human-murine chimeric antibody, human IgG1/kappa constant regions) VH: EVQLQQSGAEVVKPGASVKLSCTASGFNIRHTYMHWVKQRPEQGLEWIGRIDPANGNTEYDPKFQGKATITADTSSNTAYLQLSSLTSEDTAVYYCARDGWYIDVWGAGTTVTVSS VL: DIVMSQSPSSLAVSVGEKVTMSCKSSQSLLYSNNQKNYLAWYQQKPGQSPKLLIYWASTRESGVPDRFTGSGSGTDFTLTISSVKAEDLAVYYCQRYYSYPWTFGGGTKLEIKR

>  <Maximum mean fluorescence intensity>
363

$$$$
>  <binder>
S009-F1.62.9 (antibody, human IgG1, kappa, V domains shown, human-murine chimeric antibody, human IgG1/kappa constant regions) VH: EVQLQQSGADLVKPGASVKLSCTVFGLNFKDTFMHWVRQRPEQGLEWIGRIDPANDNSIYGPKFQDKATITADTSSNTAYLHLSSLTSEDTAVYYCLYFDNWGHGTTLTVSS VL: DIVMTQAASSEPVTPGESVSISCRSDKSLLHSNGHNYLYWFLQRPGQSPHLLIYRMSNLASGVPDRFSGSGSGTAFTLRISRVEAEDVGVYYCMQHLEYPLTFGAGTKLELKR

>  <Maximum mean fluorescence intensity>
6930

$$$$
>  <binder>
S009-F1.25.10 (antibody, human IgG1, kappa, V domains shown, human-murine chimeric antibody, human IgG1/kappa constant regions) VH: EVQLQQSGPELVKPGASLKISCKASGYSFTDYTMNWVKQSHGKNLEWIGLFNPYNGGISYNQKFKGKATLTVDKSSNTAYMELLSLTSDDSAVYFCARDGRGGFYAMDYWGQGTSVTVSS VL: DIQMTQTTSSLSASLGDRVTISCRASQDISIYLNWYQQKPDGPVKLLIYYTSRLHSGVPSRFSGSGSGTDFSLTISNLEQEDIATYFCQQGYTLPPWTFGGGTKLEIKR

>  <Maximum mean fluorescence intensity>
6260

$$$$
>  <binder>
S009-F1.59.1 (antibody, human IgG1, kappa, V domains shown, human-murine chimeric antibody, human IgG1/kappa constant regions) VH: EVKLEGSGGGLVQPGGSMMLSCVATGFTFSSYWMNWVRQSPDRGLEWVAEIRLKSNGFAAFYAESVKGRFTISRDDSKSSVYLQMNNLRTEDTGIYYCTYFVHWGQGILVTVSE VL: DIVLTQSPTSLAVSLGQRATISCRTSESVEYFGTILIQWYQQKPGQPPKLLIFGASNVESGVPARFSGSGSGTDFSLNIHPVEEEDIAMYFCQQNRKVPYTFGGGTTLELKR

>  <Maximum mean fluorescence intensity>
7070

$$$$
>  <binder>
S009-F1.2.12 (antibody, human IgG1, kappa, V domains shown, human-murine chimeric antibody, human IgG1/kappa constant regions) VH: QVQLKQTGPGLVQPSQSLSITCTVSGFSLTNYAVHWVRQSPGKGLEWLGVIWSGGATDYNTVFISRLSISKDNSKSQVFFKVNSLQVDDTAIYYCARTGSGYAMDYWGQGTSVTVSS VL: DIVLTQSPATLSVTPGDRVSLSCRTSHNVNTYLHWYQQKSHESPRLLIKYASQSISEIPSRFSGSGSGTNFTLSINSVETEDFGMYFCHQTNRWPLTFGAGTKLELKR

>  <Maximum mean fluorescence intensity>
239

$$$$
>  <binder>
S009-F1.57.1 (antibody, human IgG1, kappa, V domains shown, human-murine chimeric antibody, human IgG1/kappa constant regions) VH: EAQLQQSGAVFVKPGASVKLSCTASGFSSKDIFLHWVKQRPEQGLEWIGRIDPASDNTIYDPKFQDRATITSDRSSNTAYLQFSSLTSEDTAVYFCLYFDFWGQGTTLTVSS VL: DIVMTQATPSISVTPGESVSISCRSSESLLHSNGNTYLYWFLQRPGQSPQLLIYRMSNLASGVPDRFSVSGSGTAFTLRISRVEAEDVGVYYCMQHLEYPLTFGAGTKLELKR

>  <Maximum mean fluorescence intensity>
6660

$$$$

INPUT: Item under review: S009-F1.35.24 (antibody, human IgG1, kappa, V domains shown, human-murine chimeric antibody, human IgG1/kappa constant regions) VH: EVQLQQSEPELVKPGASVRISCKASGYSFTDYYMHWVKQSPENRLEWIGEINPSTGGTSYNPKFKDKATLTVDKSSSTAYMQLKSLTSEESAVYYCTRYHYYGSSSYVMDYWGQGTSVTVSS VL: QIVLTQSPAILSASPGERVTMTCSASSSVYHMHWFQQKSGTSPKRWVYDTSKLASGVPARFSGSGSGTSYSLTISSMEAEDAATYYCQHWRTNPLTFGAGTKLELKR . Reported Maximum mean fluorescence intensity?
OUTPUT: 680
